Quick list: hERG current change (%, negative = inhibition) at 1uM per entry.
System Name: human ether-à-go-go-related gene (hERG) potassium channel (human)
Sequence (Q12809 whole entry, looked up): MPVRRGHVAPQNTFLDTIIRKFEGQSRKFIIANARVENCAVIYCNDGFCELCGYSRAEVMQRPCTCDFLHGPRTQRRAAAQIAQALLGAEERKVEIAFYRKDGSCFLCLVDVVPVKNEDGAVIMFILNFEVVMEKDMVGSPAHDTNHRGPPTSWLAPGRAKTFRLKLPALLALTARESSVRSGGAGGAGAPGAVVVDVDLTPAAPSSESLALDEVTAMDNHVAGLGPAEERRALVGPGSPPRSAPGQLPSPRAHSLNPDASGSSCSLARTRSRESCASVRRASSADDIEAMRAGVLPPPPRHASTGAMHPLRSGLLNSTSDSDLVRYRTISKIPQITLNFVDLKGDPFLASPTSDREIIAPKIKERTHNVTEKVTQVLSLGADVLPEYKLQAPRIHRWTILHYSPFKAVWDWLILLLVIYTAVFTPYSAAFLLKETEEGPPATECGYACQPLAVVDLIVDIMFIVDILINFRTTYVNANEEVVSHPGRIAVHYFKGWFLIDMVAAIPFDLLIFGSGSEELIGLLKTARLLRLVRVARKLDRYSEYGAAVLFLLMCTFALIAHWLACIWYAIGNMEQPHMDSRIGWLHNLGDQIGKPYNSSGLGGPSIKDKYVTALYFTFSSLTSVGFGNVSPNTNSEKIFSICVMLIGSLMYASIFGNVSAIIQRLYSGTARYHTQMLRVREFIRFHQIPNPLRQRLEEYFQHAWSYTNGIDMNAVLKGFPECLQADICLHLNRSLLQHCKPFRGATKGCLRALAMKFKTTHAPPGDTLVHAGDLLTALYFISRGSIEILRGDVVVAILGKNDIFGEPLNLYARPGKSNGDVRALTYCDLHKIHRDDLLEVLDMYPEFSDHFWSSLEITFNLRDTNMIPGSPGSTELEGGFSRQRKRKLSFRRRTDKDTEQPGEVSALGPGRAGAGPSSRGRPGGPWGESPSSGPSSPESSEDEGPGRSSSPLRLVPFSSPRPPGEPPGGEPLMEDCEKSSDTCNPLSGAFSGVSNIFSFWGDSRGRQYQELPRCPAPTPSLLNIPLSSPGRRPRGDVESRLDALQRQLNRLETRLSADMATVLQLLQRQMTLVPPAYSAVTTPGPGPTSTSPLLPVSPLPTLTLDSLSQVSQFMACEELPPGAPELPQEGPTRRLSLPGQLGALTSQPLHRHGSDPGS
Assay: primary screen, population patch clamp on CHO cells stably expressing hERG; higher = less effect of the substance
The whole screen tested about 310,000 compounds, of which about 2,200 (0.71%) showed an effect of 50% or more. The effect is printed as a negative number. Only a selection was taken, and strong results are over-represented in it overall.
Just the number please, in %, no unit attached.

Task item: // hERG current change (%, negative = inhibition) at 1uM lookup, key: CCOC(=O)c1c(CN2CCCCC2)n(C)c2cc(Br)c(O)cc12
Reply: -68.8

Task item: // hERG current change (%, negative = inhibition) at 1uM lookup, key: CCSC1(SCC)N=C(N)C2(C#N)C(c3ccccc3)NC3=C(CCC3)C12C#N (centres unmarked)
Reply: 14.4

Task item: // hERG current change (%, negative = inhibition) at 1uM lookup, key: COCCCNC(=O)c1cc2c(=O)n(C)c3ccccc3c2n1C
Reply: -8.02

Task item: // hERG current change (%, negative = inhibition) at 1uM lookup, key: CCOC(=O)c1c(CN2CCCCC2)n(C)c2cc(Br)c(OC)cc12
Reply: 9.14

Task item: // hERG current change (%, negative = inhibition) at 1uM lookup, key: CCOC(=O)CSc1nc(Cc2ccccc2)nc2ccccc12
Reply: 3.08

Task item: // hERG current change (%, negative = inhibition) at 1uM lookup, key: CN(c1ncnc(N)c1[N+](=O)[O-])C1CCCCC1
Reply: 12.5

====

Quick list: hERG current change (%, negative = inhibition) at 1uM per entry.
System Name: human ether-à-go-go-related gene (hERG) potassium channel (human)
Assay: primary screen, population patch clamp on CHO cells stably expressing hERG; higher = less effect of the substance
Among all 310,000 compounds or so, about 2,200 (0.71%) showed an effect of 50% or more. Effects have a minus sign here. Many of the other results were omitted from the sample, so strong results are more common in it than they were.
Just the number please, in %, no unit attached.

Below, 10 compounds whose answers are already recorded.
Compound	Quantitative Result
Fc1ccc(NCc2ccccc2F)cc1Cl	-76.5
CC(OC(=O)CCCC(=O)Nc1ccc(F)cc1)C(=O)c1ccccc1 (stereo not drawn)	12.7
Cc1cc(=O)c(C(=O)O)nn1-c1cccc(C(F)(F)F)c1	-78.9
O=C(c1ccc([N+](=O)[O-])cc1)N1CCN(c2ncc(Br)cn2)CC1	-11.3
Cc1ccc2nc(C)c3c(c2c1)N(c1ccccc1)CC3	-70
CC(Oc1ccc(Cl)cc1)C(=O)OCC(=O)Nc1ncc(Cl)cc1Cl (stereo not drawn)	3.29
COc1ccc(C)cc1S(=O)(=O)NCC(c1ccc2c(c1)OCO2)N1CCOCC1 (stereo not drawn)	5.86
O=[N+]([O-])c1cccc2c(N3CCCC3)ccnc12	-84.4
CCOc1cccc(NC(=O)C2CC(=O)N(C)C(=Nc3cccc(F)c3)S2)c1 (stereo not drawn)	9.17
Cc1ccc2nc(C)c3c(c2c1)N(c1ccc(F)cc1)CC3	-94.5

--- query ---
Task item: // hERG current change (%, negative = inhibition) at 1uM lookup, key: CN1CCN(C(CNS(=O)(=O)c2ccc(Br)cc2)c2ccc3c(c2)OCO3)CC1 (stereo not drawn)
Reply: -59.5
